Tested on: SK-MEL-28
Assay: NCI tumour cell line growth inhibition, 48 h
Calls of active or inactive are those of the source. No stated cut-off is given here; in the data, active = GI50 up to about 1.1 µM and inactive = higher.
Overview of reported GI50 across a group of molecules:

Reference set, count: 3
COMPOUND_SMILES: O=C(c1cc(Cl)cc(Cl)c1)N(C(=S)OC12CC3CC(CC(C3)C1)C2)c1ccccc1
GI50: 59.4 µM (inactive)

COMPOUND_SMILES: Cc1cc(C)c(C[C@H]2COC(=O)[C@]2(O)Cc2c(C)cc(C)cc2C)c(C)c1
GI50: 24.7 µM (inactive)

COMPOUND_SMILES: CSC1=N/C(=C\c2ccccc2)C(=O)N1CN1CCOCC1
GI50: > 100 µM (inactive)

Please find the next molecule below.
QUERY: Answer with the recorded GI50 for the molecule listed here: "O=C1[C@@H](O)[C@@H]2CCCC[C@@]23CCCN13"
RESULT: > 100 µM (inactive)

* * *

System: HOP-18
Assay: NCI tumour cell line growth inhibition, 48 h
Calls of active or inactive are those of the source. Rule as the data show it: active = GI50 up to about 1.1 µM and inactive = higher.
OBSERVED_PROPERTY: GI50

COMPOUND: CCCCC(C(=O)C(=O)Nc1ccc(C)cc1C)C(=O)C(C)C (stereo unspecified)
GI50: > 100 µM (inactive)

COMPOUND: Cc1cc(=O)oc2cc3c(cc12)Oc1ccccc1O3
GI50: > 100 µM (inactive)

COMPOUND: CC12Oc3ccc4ccccc4c3CC1Cc1c(ccc3ccccc13)O2 (stereo unspecified)
GI50: 35.9 µM (inactive)

COMPOUND: CCOC(=O)C1=C(C)N(C2OC(COC(C)=O)C(OC(C)=O)C(OC(C)=O)C2OC(C)=O)C(=O)NC1c1ccccc1 (stereo unspecified)
GI50: > 100 µM (inactive)

In the following, a different compound is considered.
QUERY: Determine reported GI50 for CC(=O)NC(CCCNC(=O)N(CCCl)N=O)C(=O)NCc1ccccc1 (stereo unspecified) ; test system: HOP-18.
RESULT: > 100 µM (inactive)

* * *

System: Malme-3M
Assay: NCI tumour cell line growth inhibition, 48 h
Activity calls are given as the source filed them. No stated cut-off is given here; in the data, active = GI50 up to about 1.1 µM and inactive = higher.
Attribute: GI50

Would you please look over these solved cases?
MOLECULE: COc1ccc(NC(=O)c2cc(NC(=O)/C=C/c3ccccc3)c(OC)c(OC)c2)cc1
GI50: 18.2 µM (inactive)
--
MOLECULE: Cc1ccc(Cc2c(=O)[nH]nc3ccccc23)cc1
GI50: > 100 µM (inactive)
--
MOLECULE: CNC(=S)/C(C#N)=C(\N)N1CCN(C)CC1
GI50: > 100 µM (inactive)
--
MOLECULE: CCCCCCCCCCCCCCCc1ccc(OCC(O)CO)cc1 (stereo not given)
GI50: 22.4 µM (inactive)
--
MOLECULE: O=C(CCC(=O)Nc1ccc(Cl)c(Cl)c1)CC(=O)c1ccc(F)cc1
GI50: > 100 µM (inactive)

QUERY: Note down GI50 recorded for "CN(C)CCOc1ccc([N+](=O)[O-])c2cccnc12"
RESULT: > 100 µM (inactive)

QUERY: Retrieve GI50 measured for "CCOC(=O)c1cn(CC)c2cc3c(cc2c1=O)CCS3(=O)=O" and print it.
RESULT: > 100 µM (inactive)

* * *

Test system: HCT-116
Experiment: NCI tumour cell line growth inhibition, 48 h
Activity calls are given as the source filed them. Rule as the data show it: active = GI50 up to about 1.1 µM and inactive = higher.
The entries below come with measured GI50 values attached.

COMPOUND: Cc1ccc(O)c(C(=O)/C=C/c2ccccc2)c1
GI50: > 100 µM (inactive)
//
COMPOUND: COC(OC)C(O)C1OC=CC1n1cnc2c(N)ncnc21 (stereo not given)
GI50: > 100 µM (inactive)
//
COMPOUND: O=S(=O)(/N=C(\NO)Nc1ccc(Cl)cc1)c1cccc2nsnc12
GI50: 32 µM (inactive)
//
COMPOUND: [O-][S+](c1ccccc1)c1ccc(/N=N/O)nc1 (stereo not given)
GI50: > 100 µM (inactive)
//
COMPOUND: CCOC(=O)C1=C(Nc2ccccc2)SC/C1=N\NC(=O)Cc1ccccc1
GI50: > 100 µM (inactive)
//
COMPOUND: O=C(NC12CC3CC(CC(C3)C1)C2)C(=O)c1c[nH]c2ccccc12
GI50: 14.7 µM (inactive)
//
COMPOUND: CCOC(=O)C1(Cc2ccc3c(c2)CCC3)Cc2cc3c(cc2C1=O)CCC3 (stereo not given)
GI50: 16.7 µM (inactive)
//
COMPOUND: CCOC(=O)/C(=C/c1ccccc1)N(CC)CC
GI50: > 100 µM (inactive)

QUERY: Note GI50 for the compound shown: "NC(=O)N/N=C1\C[C@H]2CCCC[C@H]2C1"
RESULT: > 100 µM (inactive)

QUERY: Read the entry "CN(C)CCSc1cc(-c2ccccc2)c2ccccc2n1" and write its reported GI50.
RESULT: 7.43 µM (inactive)

* * *

Tested on: PC-3
Assay: NCI tumour cell line growth inhibition, 48 h
Activity calls are given as the source filed them. Cut-off read from the data, not from the text of the source: active = GI50 up to about 1.1 µM and inactive = higher.
Catalogue of GI50 values

Check out these entries, answers already filled in.
COMPOUND_SMILES: O=c1nc(N2CCNCC2)oc2cc(Cl)oc(=O)c12
GI50: 6.49 µM (inactive)

COMPOUND_SMILES: COc1ccc(NC(=O)c2cc(NC(=O)/C=C/c3ccccc3)c(OC)c(OC)c2)cc1
GI50: 6.41 µM (inactive)

Switching to the query record.
QUERY: Please look at this molecule and report its GI50: "Cc1cc2cc3c(cc2c(-c2ccc([N+](=O)[O-])cc2)n1)OCO3"
RESULT: 44.7 µM (inactive)

* * *

System: PC-3
Test: NCI tumour cell line growth inhibition, 48 h
The source made the active and inactive calls. Cut-off read from the data, not from the text of the source: active = GI50 up to about 1.1 µM and inactive = higher.
Here, each record is paired with measured GI50 data.

QUERY: Input CC(C)C1/C(=N/O)CC(c2ccccc2)N(N=O)C1c1ccccc1 (stereo not drawn) , output reported GI50.
RESULT: 33.3 µM (inactive)

QUERY: # return recorded GI50 for entry "CN(C)CCSc1cc(-c2ccccc2)c2ccccc2n1"
RESULT: 12.2 µM (inactive)

QUERY: Using known records, supply GI50 for S=C1CC(c2ccccc2)Sc2ccc(Cl)cc2N1 (stereo not drawn)
RESULT: 4.56 µM (inactive)

QUERY: Dear colleague, please send me the reported GI50 for Cc1cc(O)c2c(c1)C(C1OC(CO)C(O)C(O)C1O)c1cc(O)cc(O)c1C2=O (stereo not drawn) when you can.
RESULT: > 100 µM (inactive)

QUERY: Input O=C1CS(=O)(=O)C(c2cccc(Oc3ccccc3)c2)N1c1cccc(Cl)c1 (stereo not drawn) , output reported GI50.
RESULT: 20.6 µM (inactive)

QUERY: Indicate its recorded GI50; the compound in question is CNC(=O)CCC(NC(C)=O)C(=O)NC(Cc1ccc(NC(=O)CCCCC(C)=O)cc1)C(=O)NC(CCC(=O)NC)C(=O)NC (stereo not drawn)
RESULT: > 100 µM (inactive)

QUERY: Return GI50 for the following compound: "O=C(Oc1cc(=O)c(OC(=O)c2ccccc2)co1)c1ccccc1"
RESULT: 91 µM (inactive)

QUERY: Please list GI50 recorded for the compound CC1=NNC(=O)C1C1CC(c2c[nH]c3ccccc23)=NN=C1Cl (stereo not drawn)
RESULT: 56.5 µM (inactive)

* * *

Test system: CCRF-CEM
Assay: NCI tumour cell line growth inhibition, 48 h
Calls of active or inactive are those of the source. Rule as the data show it: active = GI50 up to about 1.1 µM and inactive = higher.
Bench note: report the call from YES (active), NO (inactive)

Consider the worked cases shown below.
COMPOUND: COc1ccc2c(=O)c([Se]c3coc4cc(OC)ccc4c3=O)coc2c1
GROUP_LABEL: NO

COMPOUND: C=C1CC(COc2ccc3ccc(=O)oc3c2)(c2ccccc2)OC1=O (stereo not given)
GROUP_LABEL: YES

QUERY: Could you check what this test reported for "CCOC(=O)c1nc2ccc(C(F)(F)F)cc2nc1NCc1ccc(F)cc1" ?
RESULT: NO

QUERY: How did this test come out for CN1C(=O)N(c2ccccc2)C2(CCN(CC3COc4ccccc4O3)CC2)C1=O (stereo not given) ?
RESULT: NO

QUERY: Any idea what this test logged for "O=C(CSc1nc2ccc(I)cc2c(=O)n1Cc1ccccc1)Nc1ccccc1" ?
RESULT: NO

* * *

Tested on: 786-0
Test: NCI tumour cell line growth inhibition, 48 h
Active and inactive are the calls of the source. No stated cut-off is given here; in the data, active = GI50 up to about 1.1 µM and inactive = higher.
Below: a set of entries, each annotated with reported GI50.

Worked examples follow.
COMPOUND: CC1(C)C2C=CC1(C)C1(CC2)OCCO1 (stereo not drawn)
GI50: > 100 µM (inactive)

COMPOUND: CCOC(=O)/C(O)=C(/C(=O)OC)c1ccc(Cl)cc1
GI50: > 100 µM (inactive)

// moving on: another record for GI50
QUERY: Look up and state reported GI50 for "O=C1CCN2CCC(=O)c3c2c(cc2ccccc32)N1"
RESULT: > 100 µM (inactive)
